# Test system: NanoBiT
# Protocol Text: Negative screening HiBiT assay (NanoBiT activity)
# Type: cell-based
# Reported Conditions: 20 μM drug
Structures can show the parent of a compound that is named as a salt.
# key: entry, value: Negative Screening HiBiT Assay % Inhibition (20 μM)
Readout: Negative Screening HiBiT Assay % Inhibition (20 μM) (%)

1. CCCCc1oc2ccc(NS(C)(=O)=O)cc2c1C(=O)c1ccc(OCCCN(CCCC)CCCC)cc1 [Dronedarone hydrochloride]: 21
2. CC(=O)Oc1ccccc1C(=O)Nc1ncc([N+](=O)[O-])s1 [Nitazoxanide]: 77
3. CC1(C)CCC(CN2CCN(c3ccc(C(=O)NS(=O)(=O)c4ccc(NCC5CCOCC5)c([N+](=O)[O-])c4)c(Oc4cnc5[nH]ccc5c4)c3)CC2)=C(c2ccc(Cl)cc2)C1 [ABT-199]: 0
4. CN(C)c1ccc(C(=C2C=CC(=[N+](C)C)C=C2)c2ccc(N(C)C)cc2)cc1 [Crystal Violet]: 17
5. Cc1cc(C#N)cc(C)c1Oc1nc(Nc2ccc(C#N)cc2)nc(N)c1Br [Etravirine]: 0
6. Nc1ccc(/N=N/c2ccccc2)c(N)n1 [Phenazopyridine hydrochloride]: 48
7. O=C1C(O)=C([C@H]2CC[C@H](c3ccc(Cl)cc3)CC2)C(=O)c2ccccc21 [Atovaquone]: 54
8. COC(=O)C1=C(C)NC(C)=C(C(=O)OCCN(C)Cc2ccccc2)C1c1cccc([N+](=O)[O-])c1 (centres unmarked) [Nicardipine hydrochloride]: 64

---

# Target Or Test System: RBD-ACE2 attachment (RBD of viral spike protein and ACE2 receptor) (Severe acute respiratory syndrome coronavirus 2, UniProt P0DTC2)
# Protocol Text: cell-based
# Set-up: species or system SARS-CoV-2; human
# Reported Conditions: HeLa, read-out: Positive Screening RBD Attachment Assay % Inhibition (20 μM)
Where a name gives a salt, the structure may show the parent alone.
Readout: inhibition at 20 µM (%)

1) OCCOc1ccc(/C(=C(/CCCl)c2ccccc2)c2ccccc2)cc1: 39
2) CC[C@H](C)[C@H]1O[C@]2(CC[C@@H]1C)C[C@@H]1C[C@@H](C/C=C(\C)[C@@H](O[C@H]3C[C@H](OC)[C@@H](O[C@H]4C[C@H](OC)[C@@H](O)[C@H](C)O4)[C@H](C)O3)[C@@H](C)/C=C/C=C3\CO[C@@H]4[C@H](O)C(C)=C[C@@H](C(=O)O1)[C@]34O)O2: 29
3) CC(C)(C)c1nc(-c2cccc(NS(=O)(=O)c3c(F)cccc3F)c2F)c(-c2ccnc(N)n2)s1: 85
4) CC1(C)CCC(CN2CCN(c3ccc(C(=O)NS(=O)(=O)c4ccc(NCC5CCOCC5)c([N+](=O)[O-])c4)c(Oc4cnc5[nH]ccc5c4)c3)CC2)=C(c2ccc(Cl)cc2)C1: 51
5) Nc1ccc(/N=N/c2ccccc2)c(N)n1 [Phenazopyridine hydrochloride]: 52
6) CCCCc1oc2ccc(NS(C)(=O)=O)cc2c1C(=O)c1ccc(OCCCN(CCCC)CCCC)cc1 [Dronedarone hydrochloride]: 41

---

# System: NanoBiT
# Protocol Text: Negative screening HiBiT assay (NanoBiT activity)
# Type: cell-based
# Reported Conditions: 20 μM drug
Readout: Negative Screening HiBiT Assay % Inhibition (20 μM)

1. CCCC(=O)OCOC(=O)C1=C(C)NC(C)=C(C(=O)OC)C1c1cccc(Cl)c1Cl (stereo not shown) [Clevidipine butyrate]: 79%
2. CCCCCCCCCCCCCCCC[N+](C)(C)CCN(Cc1ccc(OC)cc1)c1ncccn1 [Thonzonium Bromide]: 36%
3. O=C1CCc2ccc(OCCCCN3CCN(c4cccc(Cl)c4Cl)CC3)cc2N1: 13%
4. C[C@@H]1CCO[C@H]2Cn3cc(C(=O)NCc4ccc(F)cc4F)c(=O)c(O)c3C(=O)N12 [Dolutegravir sodium]: 1%
5. Clc1ccc(COC(Cn2ccnc2)c2ccc(Cl)cc2Cl)c(Cl)c1 (stereo not shown) [Miconazole nitrate]: 3%
6. CC[C@H](C)[C@H]1O[C@]2(CC[C@@H]1C)C[C@@H]1C[C@@H](C/C=C(\C)[C@@H](O[C@H]3C[C@H](OC)[C@@H](O[C@H]4C[C@H](OC)[C@@H](O)[C@H](C)O4)[C@H](C)O3)[C@@H](C)/C=C/C=C3\CO[C@@H]4[C@H](O)C(C)=C[C@@H](C(=O)O1)[C@]34O)O2: 0%
7. OCCOc1ccc(/C(=C(/CCCl)c2ccccc2)c2ccccc2)cc1: 3%
